Molecular target: T1, GRAP2 SH2 domain (human, UniProt O75791 58-149)
T1 construct: GRAP2, human; source: bacterial expression, purified
T1 sequence (looked up): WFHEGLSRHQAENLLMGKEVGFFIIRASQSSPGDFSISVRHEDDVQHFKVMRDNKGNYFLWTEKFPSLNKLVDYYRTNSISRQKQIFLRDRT
Assay: peptide or protein array; SH2/PTB proteins spotted on aldehyde slides, rhodamine peptide titrated in buffer B (20 mM HEPES, 100 mM KCl, 0.1% Tween-20, 5 mM DTT, pH 7.8), 1 h at room temperature; replicate assays
Conditions: both partners purified
Non-standard residues stand in square brackets, D forms with d. No end group written: not given here. pY = N[C@@H](Cc1ccc(OP(=O)(O)O)cc1)C(=O)O; Rhodamine = not defined here

{"columns": ["BINDER", "Kd (µM)"],
 "data": [
  ["Rhodamine-PLQR[pY]SEDPTVPD (reading uncertain) [ErbB2 pY1112 phosphopeptide, rhodamine-labelled, for protein microarrays]", 7.15]
]}
